Source listed as the supplement of paper PMC9112550.

# Tested on: Escherichia coli TOP10;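 also: peptides expressed intracellularly from a pBAD plasmid library in pooled LB shake-flask culture, induced with 0.3% L-arabinose, DNA abundance read by NGS, three biological replicates, DESeq2 with apeglm shrinkage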
# PROCEDURE SUMMARY: shrunken log2 fold change of peptide-encoding DNA abundance (4.5 h post-induction vs induction); higher = less antimicrobial activity (less host growth inhibition)
# MEASUREMENT CONDITIONS: time post-induction: 4.5 h; library: site-saturation at positions 5, 18, 19, 20
Threshold rule: shrunken log2 fold change greater than or equal to -0.1 is criterion met; below that, criterion not met.

Answered cases to consult:
>>> group_label("RRIRQRPPRLPRPRPRPLFVPRP")
"criterion not met"
>>> group_label("RRIRGRPPRLPRPRPRPLECPRP")
"criterion met"
>>> group_label("RRIRCRPPRLPRPRPRPHIMPRP")
"criterion not met"
>>> group_label("RRIRKRPPRLPRPRPRPAAVPRP")
"criterion met"
>>> group_label("RRIRWRPPRLPRPRPRPIDVPRP")
"criterion not met"

q: // inclusive: shrunken log2 fold change at least -0.1? input: `RRIRTRPPRLPRPRPRPAWCPRP`
a: criterion met

q: // inclusive: shrunken log2 fold change at least -0.1? input: `RRIRCRPPRLPRPRPRPCTDPRP`
a: criterion met

q: // inclusive: shrunken log2 fold change at least -0.1? input: `RRIRRRPPRLPRPRPRPRMRPRP`
a: criterion met

q: // inclusive: shrunken log2 fold change at least -0.1? input: `RRIRARPPRLPRPRPRPQLTPRP`
a: criterion met

q: // inclusive: shrunken log2 fold change at least -0.1? input: `RRIRGRPPRLPRPRPRPQAAPRP`
a: criterion met

q: // inclusive: shrunken log2 fold change at least -0.1? input: `RRIRKRPPRLPRPRPRPYVSPRP`
a: criterion not met

q: // inclusive: shrunken log2 fold change at least -0.1? input: `RRIRQRPPRLPRPRPRPGHSPRP`
a: criterion met

q: // inclusive: shrunken log2 fold change at least -0.1? input: `RRIRCRPPRLPRPRPRPRYVPRP`
a: criterion not met

q: // inclusive: shrunken log2 fold change at least -0.1? input: `RRIRYRPPRLPRPRPRPIGLPRP`
a: criterion met
